- tested_on: HER2 InsWLV transformed Ba/F3 cells (Homo sapiens, UniProt P04626, INS773WL/M774V)
- Construct: expressed in transfected cells; host or cells: Ba/F3
- Sequence (P04626 with tags, fused parts or gaps INS773WL/M774V): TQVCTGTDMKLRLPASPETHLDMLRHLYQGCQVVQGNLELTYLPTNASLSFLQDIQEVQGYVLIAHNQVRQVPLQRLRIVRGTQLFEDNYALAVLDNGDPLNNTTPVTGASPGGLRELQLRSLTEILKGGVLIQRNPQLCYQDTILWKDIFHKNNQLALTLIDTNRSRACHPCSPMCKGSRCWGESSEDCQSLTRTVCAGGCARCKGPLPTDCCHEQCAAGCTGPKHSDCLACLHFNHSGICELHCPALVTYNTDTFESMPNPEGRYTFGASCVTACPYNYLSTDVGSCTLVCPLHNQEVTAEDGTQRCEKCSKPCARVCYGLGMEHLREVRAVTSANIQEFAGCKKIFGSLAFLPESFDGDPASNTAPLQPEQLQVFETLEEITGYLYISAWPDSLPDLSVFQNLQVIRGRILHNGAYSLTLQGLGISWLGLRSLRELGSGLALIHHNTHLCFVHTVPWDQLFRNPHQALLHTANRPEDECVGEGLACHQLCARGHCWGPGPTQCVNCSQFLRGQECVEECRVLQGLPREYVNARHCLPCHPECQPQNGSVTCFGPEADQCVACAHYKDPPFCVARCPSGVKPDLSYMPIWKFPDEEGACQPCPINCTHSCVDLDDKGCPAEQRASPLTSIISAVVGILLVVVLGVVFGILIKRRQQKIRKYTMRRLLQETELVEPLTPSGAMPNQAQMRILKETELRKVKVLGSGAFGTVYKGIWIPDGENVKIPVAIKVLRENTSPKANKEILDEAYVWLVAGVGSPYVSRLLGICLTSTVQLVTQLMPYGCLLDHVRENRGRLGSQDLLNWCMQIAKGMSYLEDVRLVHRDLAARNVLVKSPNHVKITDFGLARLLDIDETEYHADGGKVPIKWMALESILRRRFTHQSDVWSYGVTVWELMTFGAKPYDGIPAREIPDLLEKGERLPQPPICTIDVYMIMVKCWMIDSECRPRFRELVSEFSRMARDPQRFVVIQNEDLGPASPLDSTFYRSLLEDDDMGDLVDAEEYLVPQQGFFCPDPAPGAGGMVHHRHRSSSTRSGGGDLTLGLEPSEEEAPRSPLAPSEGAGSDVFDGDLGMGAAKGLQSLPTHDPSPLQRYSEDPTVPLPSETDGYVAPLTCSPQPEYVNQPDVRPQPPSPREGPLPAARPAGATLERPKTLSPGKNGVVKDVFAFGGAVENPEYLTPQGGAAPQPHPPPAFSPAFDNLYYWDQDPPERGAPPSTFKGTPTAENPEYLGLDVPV
- test_description: Proliferation inhibition assay, HER2 InsWLV transformed Ba/F3 cells
- Assay type: cell-based
- condition_context: MTS assay, 72 hours, Table 9 key
pEC50: −log10 of the molar value.
The compounds listed here are annotated with their pEC50.

Completed entries (count: 3):
C=CC(=O)Nc1cccc(-n2c(=O)c(Oc3ccc(F)cc3F)cc3cnc(Nc4ccc(N5CCN(C)CC5)cc4OC)nc32)c1 [Compound 6]	> 7.00
C=CC(=O)Nc1cccc(-n2c(=O)c(Oc3ccc(F)cc3F)cc3cnc(Nc4cn(C)nc4OC)nc32)c1 [Compound 4]	> 7.00
C=CC(=O)Nc1cc(Nc2ncc3cc(Nc4ccc(F)cc4F)c(=O)n(C)c3n2)c(OC)cc1N(C)CCN(C)C [Compound 141]	> 7.00

Now consider the entry below.
State the recorded pEC50 for this entry: C=CC(=O)NC1CCCC(n2c(=O)c(Oc3ccc(F)cc3F)cc3cnc(Nc4cnn(C)c4)nc32)C1 (stereo not shown) [Compound 23]
6.60 to 7.00

###

- tested_on: mutant EGFR T790M/L858R transformed Ba/F3 cells (Homo sapiens, UniProt P00533, L858R/T790M)
- Construct: expressed in transfected cells; host or cells: Ba/F3
- Sequence (P00533 25-1210 T790M/L858R): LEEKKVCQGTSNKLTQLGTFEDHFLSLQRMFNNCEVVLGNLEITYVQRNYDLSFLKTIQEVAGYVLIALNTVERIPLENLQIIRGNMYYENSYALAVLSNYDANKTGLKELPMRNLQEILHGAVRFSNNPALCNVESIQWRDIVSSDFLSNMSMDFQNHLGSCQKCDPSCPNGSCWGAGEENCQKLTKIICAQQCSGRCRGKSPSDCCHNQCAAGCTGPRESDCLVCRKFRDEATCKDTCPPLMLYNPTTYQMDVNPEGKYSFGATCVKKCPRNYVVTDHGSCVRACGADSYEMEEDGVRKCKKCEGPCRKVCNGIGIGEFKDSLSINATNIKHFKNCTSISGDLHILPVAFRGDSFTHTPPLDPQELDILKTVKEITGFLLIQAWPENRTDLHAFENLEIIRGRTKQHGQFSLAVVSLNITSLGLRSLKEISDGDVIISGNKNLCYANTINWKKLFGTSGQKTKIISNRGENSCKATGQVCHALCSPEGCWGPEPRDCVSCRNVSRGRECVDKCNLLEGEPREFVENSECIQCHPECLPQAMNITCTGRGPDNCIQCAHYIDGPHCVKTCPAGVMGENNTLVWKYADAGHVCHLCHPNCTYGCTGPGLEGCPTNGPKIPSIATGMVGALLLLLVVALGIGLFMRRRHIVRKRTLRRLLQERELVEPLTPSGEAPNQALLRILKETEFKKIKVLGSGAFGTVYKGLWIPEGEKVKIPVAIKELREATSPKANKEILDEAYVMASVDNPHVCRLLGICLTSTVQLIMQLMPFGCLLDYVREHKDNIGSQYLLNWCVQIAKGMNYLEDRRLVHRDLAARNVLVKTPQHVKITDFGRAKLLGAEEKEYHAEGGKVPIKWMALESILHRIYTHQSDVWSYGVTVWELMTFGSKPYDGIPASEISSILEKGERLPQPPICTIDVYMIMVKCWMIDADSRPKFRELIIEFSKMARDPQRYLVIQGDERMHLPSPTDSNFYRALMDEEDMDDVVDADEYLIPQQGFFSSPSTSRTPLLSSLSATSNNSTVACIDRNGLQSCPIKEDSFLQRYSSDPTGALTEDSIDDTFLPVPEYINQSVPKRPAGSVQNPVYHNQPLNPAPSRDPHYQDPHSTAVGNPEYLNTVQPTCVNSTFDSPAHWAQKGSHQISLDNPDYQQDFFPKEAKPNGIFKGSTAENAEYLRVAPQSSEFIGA
- test_description: Proliferation inhibition assay, EGFR T790M/L858R transformed Ba/F3 cells
- Assay type: cell-based
outcome_measure: EC50

I'd like to know its EC50. The compound in question is C=CC(=O)Nc1cccc(-n2c(=O)c(Oc3ccc(F)cc3F)cc3cnc(Nc4cnn(C)c4)nc32)c1
< 100 nM

###

- tested_on: HER2 InsWLV transformed Ba/F3 cells (Homo sapiens, UniProt P04626, INS773WL/M774V)
- Construct: expressed in transfected cells; host or cells: Ba/F3
- test_description: Proliferation inhibition assay, HER2 InsWLV transformed Ba/F3 cells
- Assay type: cell-based
- condition_context: MTS assay, 72 hours, Table 10 key
pEC50: −log10 of the molar value.
outcome_measure: pEC50

Solved cases (5 shown):
C=CC(=O)Nc1cc(Nc2ncc3cc(Oc4ccc(F)cc4)c(=O)n(C)c3n2)c(OC)cc1N(C)CCN(C)C	> 6.70
C=CC(=O)Nc1cc(Nc2ncc3cc(Oc4c(F)cc(F)cc4F)c(=O)n(C)c3n2)c(OC)cc1N(C)CCN(C)C	> 6.70
C=CC(=O)Nc1cc(Nc2ncc3cc(Oc4ccc(F)cc4Cl)c(=O)n(C)c3n2)c(OC)cc1N(C)CCN(C)C	> 6.70
C=CC(=O)Nc1cccc(-n2c(=O)c(Oc3ccc(F)c(Cl)c3)cc3cnc(Nc4cnn(C)c4)nc32)c1	6.22 to 6.70
C=CC(=O)Nc1cc(Nc2ncc3cc(Oc4ccc(C)cc4)c(=O)n(C)c3n2)c(OC)cc1N(C)CCN(C)C	> 6.70

Quick one: pEC50 for C=CC(=O)Nc1cc(Nc2ncc3cc(Oc4ccc(F)cc4F)c(=O)[nH]c3n2)c(OC)cc1N(C)CCN(C)C ?
> 6.70

pEC50 lookup needed for C=CC(=O)Nc1cc(Nc2ncc3cc(Oc4ccc(F)cc4)c(=O)n(C)c3n2)ccc1N(C)CCN(C)C , thanks.
6.00 to 6.22
